# TESTED_ON: human CB2R (Homo sapiens, UniProt P34972)
# Construct: host or cells: CHO cells
# Sequence (P34972 whole entry): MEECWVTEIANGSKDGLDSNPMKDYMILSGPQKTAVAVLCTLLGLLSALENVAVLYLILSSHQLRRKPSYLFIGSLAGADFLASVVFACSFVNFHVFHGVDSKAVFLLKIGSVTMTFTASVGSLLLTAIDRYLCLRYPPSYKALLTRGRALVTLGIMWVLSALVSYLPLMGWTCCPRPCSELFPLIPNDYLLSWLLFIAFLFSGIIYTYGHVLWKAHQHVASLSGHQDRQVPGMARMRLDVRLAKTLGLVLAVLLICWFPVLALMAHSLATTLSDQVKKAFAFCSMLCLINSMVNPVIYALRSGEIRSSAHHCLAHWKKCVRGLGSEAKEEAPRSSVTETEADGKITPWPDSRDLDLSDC
# PROTOCOL_TEXT: CB2R mediated modulation of cAMP synthesis
# Type: cell-based
# Description: B. CB2R Mediated Modulation of cAMP Synthesis: CHO cells expressing human CB2R (Euroscreen) were plated at a density of 5000 cells per well in 384 well plates and incubated overnight at 37° C. […] Cells were lysed and the cAMP concentration was measured using DiscoverX-XS cAMP kit, following the manufacturer's protocol. […] EC50 of agonists were calculated as follows. […] Data was analyzed using a four-parameter logistic model. […]
In this scheme, each record receives a class according to its EC50; the ranges are bin 1: < 3 nM; bin 2: ≥ 3 nM and < 30 nM; bin 3: ≥ 30 nM

Past entries and their recorded results:
Q: State the band of `CC(C)(C)c1csc(NC(=O)C(C)(C)S(=O)(=O)C2CCCC2)n1`
Ans: bin 2

Q: Note: place this molecule into its band. Item: `CC(C)CCS(=O)(=O)C(C)(C)C(=O)Nc1cc(C(C)(C)C)nn1C`
Ans: bin 2

Q: Record `CCCS(=O)(=O)C(C)(C)C(=O)Nc1nc(C2CCCCC2)cs1` — which class?
Ans: bin 3

Others:
Q: Which class does CC(C)(C)c1cc(NC(=O)C(C)(C)S(=O)(=O)CC2CCN(S(C)(=O)=O)C2)no1 (stereo not drawn) fall in?
Ans: bin 3

Q: Please let me know in which category the item CC(C)(C)c1cc(NC(=O)C(C)(C)S(=O)(=O)CC2CCCO2)on1 (stereo not drawn) belongs.
Ans: bin 3

Q: The entry to classify is `CC(C)(C(=O)Nc1nnc(-c2ccccc2)[nH]1)S(=O)(=O)C1CCCC1` ; which class holds it?
Ans: bin 2

Q: // bin(item) where item = CC(C)(C)c1cc(NC(=O)C(C)(C)S(=O)(=O)CC2CCCCO2)on1 (stereo not drawn)
Ans: bin 1

Q: Please classify: `CC(C)CCS(=O)(=O)C(C)(C)C(=O)Nc1cc(C(C)(C)C)on1`
Ans: bin 1

Q: Which bin, given its EC50, does `CC(C)(C(=O)Nc1nc2ccccc2s1)S(=O)(=O)CC1CCOCC1` occupy?
Ans: bin 2
